# credit: ChEMBL document CHEMBL4418480

The reader will find reported IC50 values listed item by item below.
- experiment notes: Inhibition of rho-mediated gene transcription in human PC3 cells transfected with Galpha12QL activator incubated for 19 hrs by SRE.L-firefly luciferase based dual luciferase reporter gene assay
- Assay type: cell-based
- conditions used: PC-3, 19 h
Number in µM, nothing else.

Sample answers from the record:
compound string	measure	unit of measure	measurement
O=C(CONC(=O)c1ccc(C(F)(F)F)cc1)Nc1ccc(Cl)cc1	IC50	µM	29
O=C(CONC(=O)c1cccc(C(F)(F)F)c1)Nc1ccc(Cl)cc1	IC50	µM	27

Now examine the next entry.
### Prompt IC50 for O=C(CONC(=O)c1cc(C(F)(F)F)cc(C(F)(F)F)c1)Nc1ccccc1 ?
### Response 36
